- Study System: MAGI2_5, Q86UL8
- Sequence (Q86UL8 915-1017): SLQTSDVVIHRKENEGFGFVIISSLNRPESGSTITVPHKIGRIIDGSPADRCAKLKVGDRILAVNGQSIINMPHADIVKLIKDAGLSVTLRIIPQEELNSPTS
- Assay Protocol: holdup assay
- Set-up: key: below the threshold = too weak to quantify, mostly under pKd 3.1 to 4
- Stated Conditions: plain residues with an end cap or a label only (N-terminal biotin on a linker: ado-ado)

>  <Binder>
PYSESDDDWC [CACNA1A, O00555]

>  <pKd>
below the threshold

$$$$
>  <Binder>
DDASLPVSDV [PLEKHA1, Q9HB21]

>  <pKd>
below the threshold

$$$$
>  <Binder>
GEDRSPPTAL [MKNK1, Q9BUB5]

>  <pKd>
below the threshold

$$$$
>  <Binder>
EPQYQPGENL [SRC, P12931]

>  <pKd>
below the threshold

$$$$

Data origin, for the record: paper PMC9482650
